B1: Far upstream element-binding protein 1, residues 98 to 169; numbered along this chain, Q96AE4 (parent)
chain: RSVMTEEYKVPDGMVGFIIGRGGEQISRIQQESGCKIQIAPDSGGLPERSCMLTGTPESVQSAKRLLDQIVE

variants of: B1; experiment: abundance fitness (aPCA) (normalised: wild type 0, dead -1); higher = more abundant; growth selection in yeast, the domain comes from the species named; details: Homo sapiens
quantity: abundance fitness
# print the numeric value only

Use these answered entries as a reference point.
{"columns": ["mutation label", "quantity", "value reported"],
 "data": [
  ["E24W", "abundance fitness", 0.171],
  ["M52Q", "abundance fitness", -0.032],
  ["E48Y", "abundance fitness", 0.02],
  ["D12F", "abundance fitness", -0.066],
  ["P41Q", "abundance fitness", -0.031],
  ["S33M", "abundance fitness", -0.414],
  ["R1K", "abundance fitness", -0.081],
  ["E48T", "abundance fitness", -0.028],
  ["E72A", "abundance fitness", 0.04],
  ["K64F", "abundance fitness", -0.254]
]}

# evaluate next
Quick note, abundance fitness for `S43Y` landed at -0.124
